B1: Cold shock protein CspB, P41016 (parent)
chain: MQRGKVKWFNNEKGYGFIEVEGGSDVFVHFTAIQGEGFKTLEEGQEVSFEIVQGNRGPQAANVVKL

Variants of: B1
conditions: Bacillus caldolyticus; pH 7; 70 °C; Thermal; CD; Sodium cacodylate-HCl 0.1 M; NaCl 2 M; reversible: yes; structure 1C9O; whole UniProt chain shown
Label rule, in plain words: unfolding free energy of 2 kcal/mol and up is class 1, under 2 kcal/mol is class 0.

mutations=L66A classlabel="class 1"
mutations=G23Q classlabel="class 0"
mutations=T31S classlabel="class 1"
mutations=R3E classlabel="class 0"
mutations=Y15F classlabel="class 1"
mutations=E46A classlabel="class 1"
mutations=S24D classlabel="class 1"
mutations=L66E classlabel="class 0"
mutations=Q2L classlabel="class 1"
mutations=Q53E classlabel="class 1"
mutations=N11S classlabel="class 1"
